- TARGET: pooled human IgG (human IgG1, 2, 3 and 4)
PROPERTY MEASURED: Enzyme Activity Endpoint Assay (purified): scIgG

PROTEIN	OBSERVED
PRT-660 (protein) MQITSVWTKGVTPLTPEQFRYNNEDVIHAPYLAHQGWYDITKAFDGKDNLLCGAATAGNMLHWWFDQNKTEIEAYLSKHPEKQKIIFNNQELFDLRKAINTKDDQKESALFNYFRKKAFPNLSARQLGVMPDLVLDMFINGYYLNVFKTQSTDVNRPYQDKDKRGGIFDAVFTRGDQTTLLTARHDLKNKGLNDISTIIKQELTEGRALALSHTYANVSISHVINLWGADFNAEGNLEAIYVTDSDANASIGMKKYFVGINAHGHVAISAKKIEGENIGAQVLGLFTLSSGKDIWQKLSLEHHHHHH	668 ng/µL
PRT-697 (protein) MTITSVWTKGVIPPTPEDFRYNNEDVLHAPYVPNQGWYDITKTFDGGDNLLCGAATAGNMLHWWFDQNKEEIERYLKKYPEKQKIIFNNQELFDVRAAINTKDSQTNSKLFNYFRDKAFPNLSARQLGVMPDLVLDMFINGYYLNLGKTQSTDVNRPYQDRDKRGGIFDHVFGRGDQTTLLTARHDLKNGGLNEISDLIKQELQSGKALALSHTYANVRINHVINLWGADFDAEGNLIAIYVTDSDANSSIGMKKYYVGVNANGKVAISAKKIEGDNIGAQVLGLFTLSTGQEIWQKLSLEHHHHHH	161 ng/µL
